SYSTEM: hS1P1/CHO cells (Homo sapiens (Human), UniProt P21453)
Sequence (P21453 whole entry): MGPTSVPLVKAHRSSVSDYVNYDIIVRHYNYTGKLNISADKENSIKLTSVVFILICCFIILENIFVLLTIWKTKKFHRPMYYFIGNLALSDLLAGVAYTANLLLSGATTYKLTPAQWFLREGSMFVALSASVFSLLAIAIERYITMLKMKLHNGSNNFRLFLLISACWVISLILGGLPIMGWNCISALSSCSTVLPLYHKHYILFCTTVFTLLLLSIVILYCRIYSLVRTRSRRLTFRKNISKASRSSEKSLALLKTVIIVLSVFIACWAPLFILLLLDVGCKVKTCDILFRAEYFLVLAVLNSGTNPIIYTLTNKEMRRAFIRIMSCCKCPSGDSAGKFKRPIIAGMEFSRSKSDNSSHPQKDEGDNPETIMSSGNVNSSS
ASSAY NOTES: hS1P1 ERK phosphorylation (S1P1 pERK)
COND: phosphate examples
METRIC: EC50

| COMPOUND | EC50 |
| --- | --- |
| Cn1nc(OC[C@@H]2CCc3cc([C@H]4CC[C@](N)(COP(=O)(O)O)C4)ccc3C2)cc1C(F)(F)F | < 10 nM |

Batch request: EC50 per item, same order as input.
1. CCCCCO[C@H]1CCc2cc([C@@H]3CC[C@](N)(COP(=O)(O)O)C3)ccc2C1
2. CC(C)c1ccc(OC[C@@H]2CCc3cc([C@H]4CC[C@](N)(COP(=O)(O)O)C4)ccc3C2)cc1
3. CCCSCC[C@H]1CCc2cc([C@H]3CC[C@](N)(COP(=O)(O)O)C3)ccc2C1
4. CN(C)C(=O)Cc1ccc(C[C@@H]2CCc3cc([C@H]4CC[C@](N)(COP(=O)(O)O)C4)ccc3C2)cc1

Solution:
< 10 nM
10 to 100 nM
10 to 100 nM
10 to 100 nM

Your task in this section: give EC50 for each listed record.
1. CC(C)(C)CCSC[C@@H]1CCc2cc([C@H]3CC[C@](N)(COP(=O)(O)O)C3)ccc2C1
2. CCCCCOC[C@@H]1COc2cc([C@H]3CC[C@](N)(COP(=O)(O)O)C3)ccc2O1

Solution:
["< 10 nM", "< 10 nM"]
